# Tested on: Echinochloa crusgalli
# test-details: Pre-emergence treatment, herbicidal efficacy on barnyardgrass
# Format: in vivo
# protocol-conditions: 125 g/ha, 4 weeks after spraying, scale 0 to 10
reported-property: Herbicidal efficacy, Echinochloa crusgalli

- compound: "CC1(COCc2c(F)cccc2F)CC(c2ccccc2Br)=NO1 (stereo not drawn)"
  result-number: 10
- compound: "Cc1cccc(C2=NOC(C)(COCc3c(F)cccc3F)C2)c1 (stereo not drawn) [Reference F]"
  result-number: 1
- compound: "Cc1ccccc1C1=NOC(C)(COCc2c(F)cccc2F)C1 (stereo not drawn)"
  result-number: 10

====

# Tested on: Digitaria sanguinalis
# test-details: Post-emergence treatment, herbicidal efficacy on large crabgrass
# Type: in vivo
# protocol-conditions: post-emergence, 250 g/ha, 4 weeks after spraying, scale 0 to 10
reported-property: Herbicidal efficacy, Digitaria sanguinalis

- compound: "Cc1ccccc1C1=NOC(C)(COCc2ccccc2)C1 (stereo not drawn) [Reference C]"
  result-number: 3
- compound: "Cc1cccc(C2=NOC(C)(COCc3c(F)cccc3F)C2)c1 (stereo not drawn) [Reference F]"
  result-number: 3
- compound: "CC1(COCc2ccccc2F)CC(c2ccccc2[N+](=O)[O-])=NO1 (stereo not drawn) [Reference A]"
  result-number: 1
- compound: "CC1(COCc2c(F)cccc2F)CC(c2ccccc2Cl)=NO1 (stereo not drawn)"
  result-number: 5
- compound: "CC1(COCc2c(F)cccc2Cl)CC(c2ccccc2Cl)=NO1 (stereo not drawn) [Reference B]"
  result-number: 5
- compound: "CC1(COCc2c(F)cccc2Cl)CC(c2ccccc2)=NO1 (stereo not drawn) [Reference H]"
  result-number: 0
- compound: "Cc1ccccc1C1=NOC(C)(COCc2ccccc2F)C1 (stereo not drawn) [Reference D]"
  result-number: 0
- compound: "CC1(COCc2c(F)cccc2F)CC(c2ccccc2F)=NO1 (stereo not drawn)"
  result-number: 6
- compound: "Cc1ccccc1C1=NOC(C)(COCc2c(F)cccc2Cl)C1 (stereo not drawn) [Reference E]"
  result-number: 1
- compound: "Cc1ccccc1C1=NOC(C)(COCc2c(F)cccc2F)C1 (stereo not drawn)"
  result-number: 9
- compound: "Cc1ccc(C2=NOC(C)(COCc3c(F)cccc3F)C2)cc1 (stereo not drawn) [Reference G]"
  result-number: 0
- compound: "CC1(COCc2c(F)cccc2F)CC(c2ccccc2C(F)(F)F)=NO1 (stereo not drawn)"
  result-number: 8
